Task for the reader: assign each of the following compounds its reported pIC50.
- Tested on: Calcium^2+ Channel
- Measurement notes: Calcium^2+ Channel Mobilization Inhibition Assay
- Type: cell-based
- Setup conditions: TRH induced; cell type not stated; read-out: IC50, Calcium^2+ Channel Mobilization Inhibition Assay, TRH induced
One number for each entry, as −log10 of the molar value.

Answered cases to consult:
{"Compound": "CCCCCCCCCCCCC(OC(=O)Nc1ccccc1)C1=CC(=O)OC1(C)O (stereo not drawn)", "pIC50": 6.30}
{"Compound": "CCCCCCCCCCCCC(OC(C)=O)C1=CC(=O)OC1(C)O (stereo not drawn)", "pIC50": 5.60}

For this compound ( CC1=C(CC/C(C)=C/CCC2=CCC(C3=CC(=O)OC3O)OC2O)C(C)(C)CCC1 (stereo not drawn) [manoalide, reference compound] ), measured pIC50 is 6.22

###

- Experimental system: bee venom phospholipase A2 (Apis mellifera, UniProt P00630)
- Sequence (P00630 34-167 limits assumed): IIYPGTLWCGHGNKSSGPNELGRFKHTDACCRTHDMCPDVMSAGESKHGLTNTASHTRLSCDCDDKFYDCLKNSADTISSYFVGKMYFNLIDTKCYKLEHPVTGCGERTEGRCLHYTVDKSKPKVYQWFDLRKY
pIC50: −log10 of the molar value.
Quantity: pIC50

For this compound ( CCCCCCCCCCCCC(OC(C)=O)C1=C(C)C(=O)OC1O (stereo not shown) [Compound 2] ), measured pIC50 is < 6.00
